- method summary: MTT cytotoxicity assay, HCT116
- measurement conditions: human
What IC50 at 24 h was measured for each of the following?
# number only, unit µM dropped from output

Name the recorded IC50 at 24 h of the item C=C(C)C1CCC(C)=C[C@H]1C1=C(O)C(=O)C(CCCCC)=CC1=O (some centres unmarked) [CBD-Q, CBD-Quinone] in your answer.
9.8

Name the recorded IC50 at 24 h of the item CCCCCC1=CC(=O)C(C/C=C(\C)CCC=C(C)C)=C(O)C1=O [CBG-Q, CBG Hydroxyquinone] in your answer.
47

---

- method summary: MTT cytotoxicity assay, 3T3-L1
- measurement conditions: mouse, 3T3-L1 cells (mouse embryonic fibroblast, adipose-like)
What IC50 at 24 h was measured for each of the following?
# number only, unit µM dropped from output

Name the recorded IC50 at 24 h of the item `CCCCCc1cc(O)c(C/C=C(\C)CCC=C(C)C)c(O)c1` in your answer.
42.2

Name the recorded IC50 at 24 h of the item `C=C(C)[C@@H]1CCC(C)=C[C@H]1c1c(O)cc(CCCCC)cc1O` in your answer.
30

---

- method summary: MTT cytotoxicity assay, 3T3-L1
- measurement conditions: mouse
measure: IC50 at 24 h (µM)
# number only, unit µM dropped from output

Name the recorded IC50 at 24 h of the item C=C(C)C1CCC(C)=C[C@H]1C1=C(O)C(=O)C(CCCCC)=CC1=O (some centres unmarked) in your answer.
12

Name the recorded IC50 at 24 h of the item CCCCCC1=CC(=O)C(C/C=C(\C)CCC=C(C)C)=C(O)C1=O [CBG-Q, CBG Hydroxyquinone] in your answer.
49
